system: ACHN renal; experiment: NCI-60 one-dose screen, 48 h; settings: 10 µM unless noted
Compounds without any hit were thinned out: in the full panel of roughly 83,000, 20% have a hit. The source made the active and inactive calls. The calls were made as follows: active = growth percent below 10; inactive = the rest.
Respond using exactly one of the listed classes: active, inactive

- NS(=O)(=O)c1ccc(Nc2nc(N/N=C/c3ccc(F)cc3)nc(Nc3ccccc3)n2)cc1: inactive
- CCOC(=O)C1=C(C)Nc2nc3ccccc3n2C1c1cccc(Br)c1 (configuration not stated): inactive

Check the results log: what was the call for Cc1ccc(NC(=O)N[C@@H](Cc2cc(F)cc(F)c2)C(=O)NC2C(=O)N3CCC[C@H]3C(=O)N3CCCC[C@H]3C(=O)N[C@@H](C)C(=O)N3C[C@H](C)C[C@H]3C(=O)O[C@H]2C)c(F)c1 (some centres not stated) ? inactive

Param item: `Cc1ccc(-c2cc3nc(C(Cl)Cl)nc(-c4ccccc4)n3n2)cc1` inactive

Param item: `CN(C)c1ncc(/C=C2\SC(=S)N(Cc3ccccc3Cl)C2=O)s1` inactive

Param item: `COc1ccc(/C=C/C(=O)c2nnn(-c3ccc(Br)cc3)c2C)cc1OC` inactive

Param item: `O=[N+]([O-])c1ccc(-c2nnc(SCc3ccc(O)c4ncccc34)o2)cc1` inactive

Param item: `CC(C)SC1=NC(=C(C(=N1)NC2=ClC=CC=C2)C#N)C3=CC=CC=C3` inactive

Param item: `COc1cc2c3c(n(CCCNC4CCCC4)c(=O)c2cc1OC)-c1cc2c(cc1C3=O)OCO2` active

Param item: `Cc1nn(-c2ccccc2)cc1/C=N/Nc1nc(Nc2ccccc2)nc(Nc2ccc(S(N)(=O)=O)cc2)n1` active
